EXPERIMENT: chemical genetic growth profiling, strain panel (AID 1159580);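 note: tested at 20 µM; growth read once vehicle control cultures reached saturation at 30 °C; 1 = growth at the plate median or of vehicle wells; lower values mean less growth of the strain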
SETUP CONDITIONS: S. cerevisiae deletion strains, growth OD, locus YDR162C, strain NBP2
Among all 5,500 compounds or so, about 2,000 (36%) were called active. Another 18% or so got no clear call; they are omitted. Cut-off read from the data, not from the text of the source: active = normalized growth mostly below about 0.91 (no sharp cut-off); inconclusive = no clear call, values can overlap the other calls; inactive = mostly above about 0.92. This is one part of the list.
// classify into label 1 for active, label 0 for inactive

Here's what some known entries look like.
# COMPOUND, CLASS ASSIGNMENT
rows = [
    ("O=c1oc2ccccc2c(O)c1Cc1c(O)c2ccccc2oc1=O", "label 0"),
    ("CCC(/C=C/[C@@H](C)[C@H]1CCC2C3CC=C4C[C@@H](O)CC[C@]4(C)C3CC[C@@]21C)C(C)C (stereo partly drawn)", "label 0"),
    ("C=CCc1ccccc1OCC(O)CNC(C)C (stereo not drawn)", "label 0"),
]

// param item: C=C1C(N)CC2CC1C2(C)C (stereo not drawn) ; yields the recorded call
label 0

// param item: CC(=O)O[C@@H]1CC2C(C)(C)CCC(=O)[C@]2(C)C2CC[C@@]3(C)[C@H](c4ccoc4)OC(=O)C4OC43[C@@]21C (stereo partly drawn) ; yields the recorded call
label 0

// param item: CC(=O)O[C@H]1C[C@@]2(C)[C@H](c3ccoc3)OC(=O)[C@H]3O[C@]32[C@@]2(C)C1[C@]1(C)C(C[C@H]2OC(C)=O)C(C)(C)[C@H](OC(C)=O)C[C@@H]1OC(C)=O (stereo partly drawn) ; yields the recorded call
label 0

// param item: `CN(N=O)C(=O)N[C@@H]1[C@@H](O)[C@H](O)[C@@H](CO)O[C@@H]1O` ; yields the recorded call
label 0

// param item: C=CCCCCCCCCCCCC(O)CC(O)CO (stereo not drawn) (tested in a mixture with another compound) ; yields the recorded call
label 1

// param item: `CCC/C=C/C=C/[C@@H]1C[C@@H](O)[C@@H](O)C(=O)[C@H]1C=O` ; yields the recorded call
label 0

Entry source: PubChem BioAssay AID1159580
